# HDAC6 activity raw data (signal) per entry
Target: HDAC6 (Homo sapiens, UniProt Q9UBN7)
Construct: purchased Reaction Biology Corporation (assay run by the CRO)
Sequence (Q9UBN7 1-1215): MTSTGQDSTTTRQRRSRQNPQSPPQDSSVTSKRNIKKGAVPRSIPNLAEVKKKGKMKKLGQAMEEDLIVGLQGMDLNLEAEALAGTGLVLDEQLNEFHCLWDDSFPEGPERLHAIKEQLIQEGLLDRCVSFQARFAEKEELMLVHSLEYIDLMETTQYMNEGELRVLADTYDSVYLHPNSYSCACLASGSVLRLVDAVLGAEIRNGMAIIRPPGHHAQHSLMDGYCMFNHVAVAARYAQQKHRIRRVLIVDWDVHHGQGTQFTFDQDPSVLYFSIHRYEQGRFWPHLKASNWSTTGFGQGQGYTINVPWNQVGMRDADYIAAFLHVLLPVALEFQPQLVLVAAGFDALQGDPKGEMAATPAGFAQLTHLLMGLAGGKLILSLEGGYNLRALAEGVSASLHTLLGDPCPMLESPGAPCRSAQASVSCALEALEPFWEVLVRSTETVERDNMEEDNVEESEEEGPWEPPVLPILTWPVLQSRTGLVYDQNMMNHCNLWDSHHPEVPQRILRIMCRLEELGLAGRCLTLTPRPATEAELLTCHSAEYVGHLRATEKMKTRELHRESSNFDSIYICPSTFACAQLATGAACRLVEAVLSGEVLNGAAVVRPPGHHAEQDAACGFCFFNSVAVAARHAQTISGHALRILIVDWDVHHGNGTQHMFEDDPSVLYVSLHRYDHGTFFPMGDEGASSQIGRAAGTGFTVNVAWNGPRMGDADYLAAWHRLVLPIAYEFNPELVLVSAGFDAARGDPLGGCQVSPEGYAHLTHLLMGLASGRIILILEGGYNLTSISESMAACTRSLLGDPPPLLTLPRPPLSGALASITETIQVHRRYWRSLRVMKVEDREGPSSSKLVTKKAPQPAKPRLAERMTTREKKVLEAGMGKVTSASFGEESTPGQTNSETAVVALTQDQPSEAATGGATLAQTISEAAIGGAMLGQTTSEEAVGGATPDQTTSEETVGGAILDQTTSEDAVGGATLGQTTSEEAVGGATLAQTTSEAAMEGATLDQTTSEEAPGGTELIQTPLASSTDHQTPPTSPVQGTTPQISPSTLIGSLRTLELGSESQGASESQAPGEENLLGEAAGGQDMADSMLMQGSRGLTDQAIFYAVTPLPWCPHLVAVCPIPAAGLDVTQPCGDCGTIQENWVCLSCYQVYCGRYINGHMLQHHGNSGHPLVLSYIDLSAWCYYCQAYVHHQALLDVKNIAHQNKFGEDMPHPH
Test: HDAC6 inhibition, full IC50 measurement (Reaction Biology; fluorogenic p53 peptide RHKK(Ac)AMC)
Format: biochemical
Details: Conc. 5.08E-10 M, t2
Procedure: The assay was performed using 50 μM fluorogenic peptide from p53 residues 379-382 [RHKK(Ac)AMC] in a base reaction buffer of 50 mM Tris-HCl at pH 8.0, 137 mM NaCl, 2.7 mM KCl, 1 mM MgCl2, and freshly added 1 mg/ml BSA and 1% DMSO. […] Peptide concentrations were calculated based on mass of lyophilized peptide and its molecular weight. […]
Peptide text beside a SMILES is read from it.
No unit in the answer, only the number.

Solved entries (count: 2):
INSERT INTO assay_data (molecule, number) VALUES
  ('CC(C)[C@@H]1NC(=O)[C@H](CCCNC(=N)N)NC(=O)[C@@H](CC(=O)O)NC(=O)[C@H](CO)NC(=O)[C@@H](CO)NC(=O)[C@@H](CCC(=O)O)NC(=O)[C@H](Cc2ccc(O)cc2)NC(=O)[C@H](CCCCCS)NC1=O [des4.2.0, SHA-Tyr-dGlu-dSer-Ser-dAsp-Arg-Val] (HELM PEPTIDE1{R.V.[O=C([C@H](CCCCCS)N[*:1])[*:2]].Y.[dE].[dS].S.[dD]}$PEPTIDE1,PEPTIDE1,1:R1-8:R2$$$V2.0)', 1828745),
  ('CSCC[C@H]1NC(=O)[C@@H](CO)NC(=O)[C@H](CC(N)=O)NC(=O)[C@H](CC(=O)O)NC(=O)[C@@H]([C@H](C)O)NC(=O)[C@H](Cc2c[nH]c3ccccc23)NC(=O)[C@H](CCCCCS)NC(=O)[C@H](CCCCN)NC(=O)[C@@H](CC(=O)O)NC1=O [des2.1.1, SHA-Trp-dThr-Asp-Asn-dSer-dMet-dAsp-Lys] (HELM PEPTIDE1{D.N.[dS].[dM].[dD].K.[O=C([C@H](CCCCCS)N[*:1])[*:2]].W.[dT]}$PEPTIDE1,PEPTIDE1,1:R1-9:R2$$$V2.0)', 482059);

Okay, now this molecule:
# input Recorded HDAC6 activity raw data (signal) for CCCC[C@H]1NC(=O)[C@H](Cc2ccccc2)NC(=O)[C@H](CCCCCS)NC(=O)[C@@H](CO)NC(=O)[C@H](CC(=O)O)NC(=O)[C@@H](CO)NC(=O)[C@@H](C)NC(=O)[C@H](CCCCN)NC1=O [des4.3.1.1, SHA-Phe-dNle-Lys-dAla-dSer-Asp-dSer] (HELM PEPTIDE1{D.[dS].[O=C([C@H](CCCCCS)N[*:1])[*:2]].F.[CCCC[C@@H](N[*:1])C(=O)[*:2]].K.[dA].[dS]}$PEPTIDE1,PEPTIDE1,1:R1-8:R2$$$V2.0) , please?
# output 1733616

====

target: HDAC2 (Homo sapiens); construct: purchased Reaction Biology Corporation (assay run by the CRO); test: HDAC2 inhibition, full IC50 measurement (Reaction Biology; fluorogenic p53 peptide RHKK(Ac)AMC); assay type: biochemical; details: Conc. 1.23E-07 M, t2
Peptide text beside a SMILES is read from it.
experimental endpoint: HDAC2 activity raw data (signal)

# input Recorded HDAC2 activity raw data (signal) for CCCC[C@H]1NC(=O)[C@H](CC(=O)O)NC(=O)[C@@H](CO)NC(=O)[C@@H](C)NC(=O)[C@H](CCCCN)NC(=O)[C@@H](CCCCN)NC(=O)[C@H](Cc2ccccc2)NC(=O)[C@H](CCCCCS)NC1=O [des4.3.1.2, SHA-Phe-dLys-Lys-dAla-dSer-Asp-dNle] (HELM PEPTIDE1{D.[CCCC[C@@H](N[*:1])C(=O)[*:2]].[O=C([C@H](CCCCCS)N[*:1])[*:2]].F.[dK].K.[dA].[dS]}$PEPTIDE1,PEPTIDE1,1:R1-8:R2$$$V2.0) , please?
# output 1708262

====

target: HDAC2 (Homo sapiens, UniProt Q92769); construct: purchased Reaction Biology Corporation (assay run by the CRO); experiment: HDAC2 inhibition, full IC50 measurement (Reaction Biology; fluorogenic p53 peptide RHKK(Ac)AMC); type: biochemical; details: Conc. 1.00E-05 M, t1
Sequence (Q92769 whole entry): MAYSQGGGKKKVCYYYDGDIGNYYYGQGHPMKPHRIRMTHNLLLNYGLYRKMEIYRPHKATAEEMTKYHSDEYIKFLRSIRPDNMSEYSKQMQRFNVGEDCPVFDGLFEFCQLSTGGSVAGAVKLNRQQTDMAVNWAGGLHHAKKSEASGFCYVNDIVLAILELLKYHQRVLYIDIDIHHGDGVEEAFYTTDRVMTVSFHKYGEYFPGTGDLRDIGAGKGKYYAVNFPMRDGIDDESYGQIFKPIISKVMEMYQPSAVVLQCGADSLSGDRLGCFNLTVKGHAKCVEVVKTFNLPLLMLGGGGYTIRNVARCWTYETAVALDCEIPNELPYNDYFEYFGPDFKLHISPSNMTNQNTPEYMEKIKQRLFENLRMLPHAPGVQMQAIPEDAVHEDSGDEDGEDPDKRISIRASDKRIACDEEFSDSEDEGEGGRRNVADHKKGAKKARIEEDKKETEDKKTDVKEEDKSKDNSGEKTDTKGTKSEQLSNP
Peptide text beside a SMILES is read from it.
experimental endpoint: HDAC2 activity raw data (signal)
No unit in the answer, only the number.

Solved entries (count: 5):
INSERT INTO assay_data (compound, number) VALUES
  ('CC(C)[C@@H]1NC(=O)[C@H](CCCNC(=N)N)NC(=O)[C@@H](CC(=O)O)NC(=O)[C@H](CO)NC(=O)[C@@H](CO)NC(=O)[C@@H](CCC(=O)O)NC(=O)[C@H](Cc2ccc(O)cc2)NC(=O)[C@H](CCCCCS)NC1=O [des4.2.0, SHA-Tyr-dGlu-dSer-Ser-dAsp-Arg-Val] (HELM PEPTIDE1{R.V.[O=C([C@H](CCCCCS)N[*:1])[*:2]].Y.[dE].[dS].S.[dD]}$PEPTIDE1,PEPTIDE1,1:R1-8:R2$$$V2.0)', 20394),
  ('NCCCC[C@H]1NC(=O)[C@H](CCC(N)=O)NC(=O)[C@H](CCC(=O)O)NC(=O)[C@@H]2CCCN2C(=O)[C@H](CC(N)=O)NC(=O)[C@H](CCCCCS)NC(=O)CNC(=O)[C@H](Cc2c[nH]c3ccccc23)NC1=O [des1.1.1, SHA-Asn-Pro-Glu-Gln-dLys-Trp-Gly] (HELM PEPTIDE1{E.Q.[dK].W.G.[O=C([C@H](CCCCCS)N[*:1])[*:2]].N.P}$PEPTIDE1,PEPTIDE1,1:R1-8:R2$$$V2.0)', 51389),
  ('N=C(N)NCCC[C@@H]1NC(=O)[C@H](Cc2c[nH]c3ccccc23)NC(=O)[C@H](CC(=O)O)NC(=O)[C@@H](CO)NC(=O)[C@H](Cc2c[nH]c3ccccc23)NC(=O)[C@H](CCCCCS)NC(=O)[C@H](CCC(N)=O)NC1=O [des4.1.0, SHA-Trp-dSer-Asp-Trp-Arg-Gln] (HELM PEPTIDE1{D.W.R.Q.[O=C([C@H](CCCCCS)N[*:1])[*:2]].W.[dS]}$PEPTIDE1,PEPTIDE1,1:R1-7:R2$$$V2.0)', -10519),
  ('CCCC[C@H]1NC(=O)[C@H](Cc2ccccc2)NC(=O)[C@H](CCCCCS)NC(=O)[C@@H](CCCNC(=N)N)NC(=O)[C@H](CC(=O)O)NC(=O)[C@@H](CO)NC(=O)[C@@H](C)NC(=O)[C@H](CCCCN)NC1=O [des4.3.1, SHA-Phe-dNle-Lys-dAla-dSer-Asp-dArg] (HELM PEPTIDE1{D.[dR].[O=C([C@H](CCCCCS)N[*:1])[*:2]].F.[CCCC[C@@H](N[*:1])C(=O)[*:2]].K.[dA].[dS]}$PEPTIDE1,PEPTIDE1,1:R1-8:R2$$$V2.0)', 97979),
  ('CCCC[C@H]1NC(=O)[C@H](Cc2ccccc2)NC(=O)[C@H](CCCCCS)NC(=O)[C@@H](CO)NC(=O)[C@H](CC(=O)O)NC(=O)[C@@H](CO)NC(=O)[C@@H](C)NC(=O)[C@H](CCCCN)NC1=O [des4.3.1.1, SHA-Phe-dNle-Lys-dAla-dSer-Asp-dSer] (HELM PEPTIDE1{D.[dS].[O=C([C@H](CCCCCS)N[*:1])[*:2]].F.[CCCC[C@@H](N[*:1])C(=O)[*:2]].K.[dA].[dS]}$PEPTIDE1,PEPTIDE1,1:R1-8:R2$$$V2.0)', 1283086);

Okay, now this compound:
# input Recorded HDAC2 activity raw data (signal) for CCCC[C@H]1NC(=O)[C@H](CC(=O)O)NC(=O)[C@@H](CO)NC(=O)[C@@H](C)NC(=O)[C@H](CCCCN)NC(=O)[C@@H](CCCCN)NC(=O)[C@H](Cc2ccccc2)NC(=O)[C@H](CCCCCS)NC1=O [des4.3.1.2, SHA-Phe-dLys-Lys-dAla-dSer-Asp-dNle] (HELM PEPTIDE1{D.[CCCC[C@@H](N[*:1])C(=O)[*:2]].[O=C([C@H](CCCCCS)N[*:1])[*:2]].F.[dK].K.[dA].[dS]}$PEPTIDE1,PEPTIDE1,1:R1-8:R2$$$V2.0) , please?
# output 1148842
